# Tested on: SK-MEL-2
# assay_overview: NCI tumour cell line growth inhibition, 48 h
Calls of active or inactive are those of the source. Cut-off read from the data, not from the text of the source: active = GI50 up to about 1.1 µM and inactive = higher.
Mark one answer only. Choices: 1.0 for active, 0.0 for inactive

Example entries and their recorded answers appear below.
INSERT INTO assay_data (compound, study_system, discrete_label) VALUES
  ('Cc1ccc(NC(=O)CSc2nnc(Cc3ccccc3)o2)c(C)c1', 'SK-MEL-2', 0.0),
  ('N#CC1=C(N)Oc2c(ccc3cccnc23)C1c1ccccc1 (stereo not given)', 'SK-MEL-2', 1.0),
  ('O=[N+]([O-])c1c(F)c(F)c2c(c1F)N(CCCCCl)c1ccccc1S2', 'SK-MEL-2', 0.0),
  ('CC(=O)Nc1ccc(CNc2cc(=O)n(C)c(=O)[nH]2)cc1', 'SK-MEL-2', 0.0),
  ('O=C(Nc1nc2ccccc2s1)c1cc([N+](=O)[O-])ccc1Cl', 'SK-MEL-2', 0.0),
  ('O=C1CC2(CCC(O)(c3cccs3)C(C(=O)c3cccs3)C2)C(=O)c2ccccc2N1 (stereo not given)', 'SK-MEL-2', 0.0);

Lookup: Hello, I am checking results. What call was entered for `O=C1CSC(/C(=C\c2ccc(Cl)cc2)c2nc3ccccc3[nH]2)=N1` ?
Found: 0.0

* * *

# Test system: NCI-H460
# assay_overview: NCI tumour cell line growth inhibition, 48 h
Calls of active or inactive are those of the source. No stated cut-off is given here; in the data, active = GI50 up to about 1.1 µM and inactive = higher. Peptide text beside a SMILES is read from it. * marks the point of attachment. Cbz = O=C(OCc1ccccc1)*; NHNH2 = NN*
This section presents molecules with their documented GI50 values.

Record excerpt, results attached:
INSERT INTO results (molecule, study_system, readout_value) VALUES
  ('COC(=O)C(Cc1cc(OC)c(OC)c(OC)c1)C(=O)OC', 'NCI-H460', '> 320 µM (inactive)'),
  ('CN(c1cn(C2CC[C@@H](CO)O2)c(=O)[nH]c1=O)C1CCCCC1 (stereo partly drawn)', 'NCI-H460', '> 100 µM (inactive)'),
  ('CCOC(=O)C1=c2[nH]c3cccc4cccc(c43)n2C(=O)CC1', 'NCI-H460', '> 100 µM (inactive)');

Lookup: Give GI50 for the following molecule: COC(=O)CC(NC(=O)OCc1ccccc1)C(=O)NC(CC(=O)OC)C(=O)NC(CC(=O)OC)C(=O)NC(CC(=O)OC)C(=O)NC(CC(=O)OC)C(=O)NC(CC(=O)OC)C(=O)NN (stereo not drawn) (Cbz-D(OMe)D(OMe)D(OMe)D(OMe)D(OMe)D(OMe)-NHNH2; configuration not given here)
Found: > 100 µM (inactive)

Lookup: Give GI50 for the following molecule: COC(=O)C1(C)CCCC2(C)c3cc(OC)ccc3C(=O)C(Br)C12 (stereo not drawn)
Found: > 10 µM (inactive)

Lookup: Give GI50 for the following molecule: CC1c2ccccc2Cn2cc3c(c21)C(=O)c1cccc(OP(=O)(O)OCc2ccccc2)c1C3=O (stereo not drawn)
Found: > 100 µM (inactive)

Lookup: Give GI50 for the following molecule: `O=[N+]([O-])c1ccc(-c2nn3c(C45CC6CC(CC(C6)C4)C5)nnc3s2)c(Cl)c1`
Found: > 100 µM (inactive)

Lookup: Give GI50 for the following molecule: `NC1=NS(=O)(=O)Nc2nc(-c3cccs3)[nH]c21`
Found: > 100 µM (inactive)
